Target: T1, human GIP receptor (human, UniProt P48546 22-466)
T1 sequence (looked up): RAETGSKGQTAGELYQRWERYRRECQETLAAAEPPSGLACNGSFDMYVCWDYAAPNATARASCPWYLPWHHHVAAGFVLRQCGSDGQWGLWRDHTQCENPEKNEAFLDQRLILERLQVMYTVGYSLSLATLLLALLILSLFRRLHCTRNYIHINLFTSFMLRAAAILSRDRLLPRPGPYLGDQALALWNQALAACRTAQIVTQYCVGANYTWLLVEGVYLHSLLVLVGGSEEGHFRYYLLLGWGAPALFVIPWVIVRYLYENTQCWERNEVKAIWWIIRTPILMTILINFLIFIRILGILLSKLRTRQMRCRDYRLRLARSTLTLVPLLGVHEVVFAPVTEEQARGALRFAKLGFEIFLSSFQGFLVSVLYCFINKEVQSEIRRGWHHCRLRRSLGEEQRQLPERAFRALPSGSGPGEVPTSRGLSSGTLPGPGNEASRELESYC
Assay: cell-based or functional assay
Starred links: 1 amine or outer side, 2 acyl side, 3 side chain; linkers in the order of their positions; H or OH if unused. Non-standard residues stand in square brackets, D forms with d. Groups on a side chain read outwards from the residue. No end group written: not given here. *: point of attachment. C20 diacid = O=C(O)CCCCCCCCCCCCCCCCCCC(=O)*; C18 diacid = O=C(O)CCCCCCCCCCCCCCCCC(=O)*; γGlu = O=C(O)[C@H](CCC(=O)[*:2])N[*:1]; εLys = N[C@@H](CCCCN[*:1])C(=O)[*:2]; AEEA = NCCOCCOCC(=O)O; Aib = CC(C)(N)C(=O)O
measure name: EC50 CreLuc hGIPR 0.5% hP
I'd appreciate it if you wrote the number followed by its unit.

Below are worked cases with known answers.
{"binder": "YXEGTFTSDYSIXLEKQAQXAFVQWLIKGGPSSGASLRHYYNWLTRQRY (Aib at 2, 13, 20; K28 side chain: C18DA-gGlu-gGlu-gGlu-gGlu-gGlu-gGlu-eLys; C-terminal NH2) [Compound 170]", "measure name": "EC50 CreLuc hGIPR 0.5% hP", "reported measurement": "0.24 nM"}
{"binder": "Y[Aib]EGTFTSDYSI[Aib]LEKQAQ[Aib]AFVQWLIK([εLys-γGlu-γGlu-γGlu-Glu-γGlu-γGlu-γGlu-C20 diacid])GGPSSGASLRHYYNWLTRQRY-NH2 [Compound 92]", "measure name": "EC50 CreLuc hGIPR 0.5% hP", "reported measurement": "0.33 nM"}
{"binder": "YXEGTFTSDYSIXLEKQAQXAFVEWLIKGGPSSGVSLRHYYNWLTRQRY (Aib at 2, 13, 20; K28 side chain: C20DA-gGlu-gGlu-gGlu-gGlu-gGlu-gGlu-eLys; C-terminal NH2) [Compound 96]", "measure name": "EC50 CreLuc hGIPR 0.5% hP", "reported measurement": "0.19 nM"}
{"binder": "YXEGTFTSDYSIXLEKQAQXAFVEWLIKGGPSEYESLRHYYNWLTRQRY (Aib at 2, 13, 20; K28 side chain: C20DA-gGlu-gGlu-gGlu-gGlu-gGlu-gGlu-eLys; C-terminal NH2) [Compound 93]", "measure name": "EC50 CreLuc hGIPR 0.5% hP", "reported measurement": "0.14 nM"}
{"binder": "Y[Aib]EGTFTSDYSI[Aib]LEKQAQ[Aib]EFVQWLIKGGPSEGASLRHYYNWLTRQRY-NH2 (not fully specified (residue 28)) [Compound 164]", "measure name": "EC50 CreLuc hGIPR 0.5% hP", "reported measurement": "0.25 nM"}
{"binder": "YXEGTFTSDYSIXLEKQAQXAFVEWLIKGGPSSGISLRHYYNWLTRQRY (Aib at 2, 13, 20; K28 side chain: C20DA-gGlu-gGlu-gGlu-gGlu-gGlu-gGlu-eLys; C-terminal NH2) [Compound 94]", "measure name": "EC50 CreLuc hGIPR 0.5% hP", "reported measurement": "0.22 nM"}

For each entry beneath this line, provide reported EC50 CreLuc hGIPR 0.5% hP.
1. Y[Aib]EGTFTSDYSI[Aib]LEKQAQ[Aib]AFVQWLIK([εLys-Glu-Glu-Glu-Glu-Glu-C18 diacid])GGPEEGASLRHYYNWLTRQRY-NH2 [Compound 155]
2. Y[Aib]EGTFTSDYSI[Aib]LEKQAQ[Aib]EFVQWLIK([AEEA-AEEA-Glu-Glu-Glu-C18 diacid])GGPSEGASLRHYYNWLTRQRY-NH2 [Compound 157]
3. Y[Aib]EGTFTSDYSI[Aib]LEKQAQ[Aib]AFVEWLIK([AEEA-AEEA-γGlu-γGlu-γGlu-γGlu-C18 diacid])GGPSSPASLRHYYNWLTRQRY-NH2 [Compound 158]
4. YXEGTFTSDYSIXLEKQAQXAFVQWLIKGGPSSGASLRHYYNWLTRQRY (Aib at 2, 13, 20; K28 side chain: C18DA-gGlu-gGlu-gGlu-gGlu-gGlu-OEG-OEG; C-terminal NH2) [Compound 167]

Resp:
0.14 nM
0.38 nM
0.11 nM
0.14 nM
